Where do these numbers come from? They come from a melting point compilation (Tetko et al.; mined from patent text by program, amines drawn as free bases though some values may be those of a salt).

value_kind: melting point

Known melting point results, listed for orientation:
>>> measurement("O=CC=NNc1c(Cl)cc(C(F)(F)F)cc1Cl")
"131 to 133 °C"
>>> measurement("c1ccc2c(c1)OCC(CCc1ncc[nH]1)O2 (stereo not given)")
"159 to 160 °C"
>>> measurement("COc1ccc(-c2cc(=O)n(C)c(=O)n2CC(O)CNC(C)(C)C)cc1OC (stereo not given)")
"123 to 125 °C"
>>> measurement("Cc1noc(NS(=O)(=O)c2ccccc2-c2ccc(-c3ncco3)cc2CN(C)C(=O)CCc2ccccc2)c1C")
"110 to 117 °C"
>>> measurement("COC(C(=Cc1ccc(Cl)cc1)n1cncn1)C(C)(C)C (stereo not given)")
"63 to 66 °C"
>>> measurement("Cc1c(C(=O)O)cnn1CCO")
"203 °C"

QUERY: Item COc1cc(F)ccc1C(=O)NC(C)c1nc(-c2ccncn2)cc(=O)n1C (racemic) : provide melting point
RESULT: 201 to 203 °C

QUERY: Report measured melting point; entry is CCOCC(C)Oc1ccc(CSc2cnn(C(C)(C)C)c(=O)c2Cl)cc1 (stereo not given)
RESULT: 89.2 to 90.2 °C

QUERY: Report melting point for Oc1ccc(-n2cnc3cc(O)cc(O)c3c2=S)cc1
RESULT: 299 to 302 °C

QUERY: Supply measured melting point of Cc1cc(C(Cl)=C(Cl)Cl)cc(C(Cl)=C(Cl)Cl)c1 in your reply.
RESULT: 41.4 to 44.6 °C
